# Test system: UACC-62 melanoma
# Experiment Summary: NCI tumour cell line growth inhibition, 48 h
Assay Readout: TGI

Previously resolved entries follow.
{"Compound": "CC(C(=O)NCNC(=O)c1ccccc1)C(=O)Nc1ccccc1 (stereo not drawn)", "Tested Target": "UACC-62 melanoma", "Assay Readout": "TGI", "Observed Measurement": "> 100 µM"}
{"Compound": "O=CN/C=C/c1ccccc1", "Tested Target": "UACC-62 melanoma", "Assay Readout": "TGI", "Observed Measurement": "> 100 µM"}

Input: Quick one: TGI for CCS1=C2C(=O)CC(C)(C)CC2=Nc2ccccc21 (stereo not drawn) ?
Output: > 100 µM
